# ASSAY_COMMENT: Stability of paclitaxel 2'-methylpyridinium acetate (HPLC)
# Type: physicochemical
# CONDITION_SET: water/polyethylene glycol, Room Temperature, 66 Hours; read-out: 2'-MPA %
EXPERIMENTAL_READOUT: remaining at 66 h (%)
Respond with the bare value in %.

Prompt: Fill in the blank: the reported remaining at 66 h of CC(=O)O[C@H]1C(=O)[C@@]2(C)[C@H]([C@H](OC(=O)c3ccccc3)[C@]3(O)C[C@H](OC(=O)[C@H](Oc4cccc[n+]4C)[C@@H](NC(=O)c4ccccc4)c4ccccc4)C(C)=C1C3(C)C)[C@]1(OC(C)=O)CO[C@@H]1C[C@@H]2O [2'-MPA, Paclitaxel 2'-Methylpyridinium Acetate] is ____.
Completion: 79

* * *

# ASSAY_COMMENT: Aqueous stability of 2'-MPM in H2O and 0.2M NaCl
# Format: physicochemical
# CONDITION_SET: H2O, room temperature, 24 hours; read-out: product concentration
Where a name gives a salt, the structure may show the parent alone.
EXPERIMENTAL_READOUT: remaining at 24 h (%)
Respond with the bare value in %.

Prompt: Fill in the blank: the reported remaining at 24 h of CC(=O)O[C@H]1C(=O)[C@@]2(C)[C@H]([C@H](OC(=O)c3ccccc3)[C@]3(O)C[C@H](OC(=O)[C@H](Oc4cccc[n+]4C)[C@@H](NC(=O)c4ccccc4)c4ccccc4)C(C)=C1C3(C)C)[C@]1(OC(C)=O)CO[C@@H]1C[C@@H]2O [2'-MPM, Paclitaxel-2'-Methylpyridinium Mesylate] is ____.
Completion: 56

* * *

# ASSAY_COMMENT: Stability of paclitaxel 2'-methylpyridinium acetate (HPLC)
# Format: physicochemical
# CONDITION_SET: water/polyethylene glycol, 4° C., 18 Hours; read-out: 2'-MPA %
EXPERIMENTAL_READOUT: remaining at 18 h

Prompt: Fill in the blank: the reported remaining at 18 h of CC(=O)O[C@H]1C(=O)[C@@]2(C)[C@H]([C@H](OC(=O)c3ccccc3)[C@]3(O)C[C@H](OC(=O)[C@H](Oc4cccc[n+]4C)[C@@H](NC(=O)c4ccccc4)c4ccccc4)C(C)=C1C3(C)C)[C@]1(OC(C)=O)CO[C@@H]1C[C@@H]2O [2'-MPA, Paclitaxel 2'-Methylpyridinium Acetate] is ____.
Completion: 73%

* * *

# ASSAY_COMMENT: Aqueous stability of 2'-MPM in H2O and 0.2M NaCl
# Format: physicochemical
# CONDITION_SET: 0.2M NaCl, room temperature, 2 hours; read-out: drop in product concentration
Where a name gives a salt, the structure may show the parent alone.
EXPERIMENTAL_READOUT: degraded at 2 h

Prompt: Fill in the blank: the reported degraded at 2 h of CC(=O)O[C@H]1C(=O)[C@@]2(C)[C@H]([C@H](OC(=O)c3ccccc3)[C@]3(O)C[C@H](OC(=O)[C@H](Oc4cccc[n+]4C)[C@@H](NC(=O)c4ccccc4)c4ccccc4)C(C)=C1C3(C)C)[C@]1(OC(C)=O)CO[C@@H]1C[C@@H]2O [2'-MPM, Paclitaxel-2'-Methylpyridinium Mesylate] is ____.
Completion: 1 to 2%

* * *

# ASSAY_COMMENT: Stability of paclitaxel 2'-methylpyridinium acetate (HPLC)
# Type: physicochemical
# CONDITION_SET: water/polyethylene glycol, 4° C., 6 Hours; read-out: 2'-MPA %
EXPERIMENTAL_READOUT: remaining at 6 h (%)
Respond with the bare value in %.

Prompt: Fill in the blank: the reported remaining at 6 h of CC(=O)O[C@H]1C(=O)[C@@]2(C)[C@H]([C@H](OC(=O)c3ccccc3)[C@]3(O)C[C@H](OC(=O)[C@H](Oc4cccc[n+]4C)[C@@H](NC(=O)c4ccccc4)c4ccccc4)C(C)=C1C3(C)C)[C@]1(OC(C)=O)CO[C@@H]1C[C@@H]2O [2'-MPA, Paclitaxel 2'-Methylpyridinium Acetate] is ____.
Completion: 75

* * *

# ASSAY_COMMENT: Aqueous stability of 2'-MPM in H2O and 0.2M NaCl
# Assay type: physicochemical
# CONDITION_SET: H2O, 4° C., 72 hours; read-out: product concentration
Counter-ions that a name gives are not always drawn.
EXPERIMENTAL_READOUT: remaining at 72 h (%)
Respond with the bare value in %.

Prompt: Fill in the blank: the reported remaining at 72 h of CC(=O)O[C@H]1C(=O)[C@@]2(C)[C@H]([C@H](OC(=O)c3ccccc3)[C@]3(O)C[C@H](OC(=O)[C@H](Oc4cccc[n+]4C)[C@@H](NC(=O)c4ccccc4)c4ccccc4)C(C)=C1C3(C)C)[C@]1(OC(C)=O)CO[C@@H]1C[C@@H]2O [2'-MPM, Paclitaxel-2'-Methylpyridinium Mesylate] is ____.
Completion: 90

* * *

# ASSAY_COMMENT: Stability of paclitaxel 2'-methylpyridinium acetate (HPLC)
# Format: physicochemical
# CONDITION_SET: water/polyethylene glycol, Room Temperature, 18 Hours; peaks of paclitaxel and unknown coeluted; read-out: 2'-MPA %
EXPERIMENTAL_READOUT: remaining at 18 h
In your response, the unit should come after the numeric value.

Prompt: Fill in the blank: the reported remaining at 18 h of CC(=O)O[C@H]1C(=O)[C@@]2(C)[C@H]([C@H](OC(=O)c3ccccc3)[C@]3(O)C[C@H](OC(=O)[C@H](Oc4cccc[n+]4C)[C@@H](NC(=O)c4ccccc4)c4ccccc4)C(C)=C1C3(C)C)[C@]1(OC(C)=O)CO[C@@H]1C[C@@H]2O [2'-MPA, Paclitaxel 2'-Methylpyridinium Acetate] is ____.
Completion: 69%

* * *

# ASSAY_COMMENT: Stability of paclitaxel 2'-methylpyridinium acetate (HPLC)
# Assay type: physicochemical
# CONDITION_SET: water/polyethylene glycol, Room Temperature, 42 Hours; read-out: 2'-MPA %
EXPERIMENTAL_READOUT: remaining at 42 h (%)
Respond with the bare value in %.

Prompt: Fill in the blank: the reported remaining at 42 h of CC(=O)O[C@H]1C(=O)[C@@]2(C)[C@H]([C@H](OC(=O)c3ccccc3)[C@]3(O)C[C@H](OC(=O)[C@H](Oc4cccc[n+]4C)[C@@H](NC(=O)c4ccccc4)c4ccccc4)C(C)=C1C3(C)C)[C@]1(OC(C)=O)CO[C@@H]1C[C@@H]2O [2'-MPA, Paclitaxel 2'-Methylpyridinium Acetate] is ____.
Completion: 73

* * *

# ASSAY_COMMENT: Stability of paclitaxel 2'-methylpyridinium acetate (HPLC)
# Format: physicochemical
# CONDITION_SET: water/polyethylene glycol, 4° C., 42 Hours; read-out: 2'-MPA %
EXPERIMENTAL_READOUT: remaining at 42 h (%)
Respond with the bare value in %.

Prompt: Fill in the blank: the reported remaining at 42 h of CC(=O)O[C@H]1C(=O)[C@@]2(C)[C@H]([C@H](OC(=O)c3ccccc3)[C@]3(O)C[C@H](OC(=O)[C@H](Oc4cccc[n+]4C)[C@@H](NC(=O)c4ccccc4)c4ccccc4)C(C)=C1C3(C)C)[C@]1(OC(C)=O)CO[C@@H]1C[C@@H]2O [2'-MPA, Paclitaxel 2'-Methylpyridinium Acetate] is ____.
Completion: 79

* * *

# ASSAY_COMMENT: Aqueous stability of 2'-MPM in H2O and 0.2M NaCl
# Format: physicochemical
# CONDITION_SET: 0.2M NaCl, 4° C., 72 hours; read-out: product concentration
# Protocol: Aqueous Stability: The stability of the prodrug in H2 O and 0.2M NaCl was examined at both room temperature and under refrigerated conditions. Samples in H2 O (0.54 mg in 2 ml) and NaCl (0.57 mg in 2 ml) at room temperature were examined at two minute time intervals (0 through 12 minutes), 2 hours and 24 hours. […] At 4° C. the product concentration was unchanged at 24 and 48 hours but decreased to 90% after 72 hours. […]
Where a name gives a salt, the structure may show the parent alone.
EXPERIMENTAL_READOUT: remaining at 72 h (%)
Respond with the bare value in %.

Prompt: Fill in the blank: the reported remaining at 72 h of CC(=O)O[C@H]1C(=O)[C@@]2(C)[C@H]([C@H](OC(=O)c3ccccc3)[C@]3(O)C[C@H](OC(=O)[C@H](Oc4cccc[n+]4C)[C@@H](NC(=O)c4ccccc4)c4ccccc4)C(C)=C1C3(C)C)[C@]1(OC(C)=O)CO[C@@H]1C[C@@H]2O [2'-MPM, Paclitaxel-2'-Methylpyridinium Mesylate] is ____.
Completion: 88

* * *

# ASSAY_COMMENT: Aqueous stability of 2'-MPM in H2O and 0.2M NaCl
# Format: physicochemical
# CONDITION_SET: 0.2M NaCl, room temperature, 24 hours; read-out: product concentration
Where a name gives a salt, the structure may show the parent alone.
EXPERIMENTAL_READOUT: remaining at 24 h (%)
Respond with the bare value in %.

Prompt: Fill in the blank: the reported remaining at 24 h of CC(=O)O[C@H]1C(=O)[C@@]2(C)[C@H]([C@H](OC(=O)c3ccccc3)[C@]3(O)C[C@H](OC(=O)[C@H](Oc4cccc[n+]4C)[C@@H](NC(=O)c4ccccc4)c4ccccc4)C(C)=C1C3(C)C)[C@]1(OC(C)=O)CO[C@@H]1C[C@@H]2O [2'-MPM, Paclitaxel-2'-Methylpyridinium Mesylate] is ____.
Completion: 70
